B1: FBXO3 (parent)
chain: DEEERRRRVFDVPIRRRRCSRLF

# Variants of: B1
# test.name: protein stability index of a GFP-peptide fusion (GPS, HEK-293T) (PSI 1-6); higher = more stable;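 also: lentivirally expressed fusions sorted by FACS into six bins by GFP to DsRed ratio, PSI derived from sequencing read proportions per bin multiplied by bin number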
# conditions.used: c terminus: native
quantity.measured: protein stability index
Please respond with just the number, no unit label.

R21Y : 3.08
E4V : 1.86
R16I : 2.2
V9E : 4.03

// moving on: another record for protein stability index
Recorded protein stability index for E3V , please? 2.54
